Biological target: recombinant human IGF-1 receptor histidine tag (305-GR-050, R&D SYSTEMS) (human) (UniProt P08069)
Test: antigen ELISA, plate-coated human recombinant IGF-1R, antibody at 5 nM, relative to IGF11-16
Listed here: items and their measured Binding vs IGF11-16 (EC50) (% vs IGF11-16).
Lab note: record just the number, no unit beside it.

The recorded Binding vs IGF11-16 (EC50) (% vs IGF11-16) for IGF11-16 with alanine substitution of S at position 54 (CDR-H2) (antibody, mouse IgG1, V domains shown) VH: QIQLQQPGAELVKPGASVKLSCKAPGYTFTSYWMHWVKQRPGQGLEWIGETNPANSVTNYNEKFKSKATLTVDKSSSTAYMQLSSLTSEDSAVYYCTIGRGRGFAYWGQGTLVTVSA VL: DIQMNQSPSSLSASLGDTITITCRASQNINFWLSWCQQKPGNIPKLLIYKASNLHTGVPSRFSGSGSGTDFTLTISSLQPEDIATYYCLQGQSYPYTFGGGTKLEIK is 97

This collection of values is drawn from patent US20250263489A1.
